# tested target: HyMurG (Hydrogenivirga sp. 128-5-R1-1, UniProt A8US35)
# Sequence (A8US35 1-350): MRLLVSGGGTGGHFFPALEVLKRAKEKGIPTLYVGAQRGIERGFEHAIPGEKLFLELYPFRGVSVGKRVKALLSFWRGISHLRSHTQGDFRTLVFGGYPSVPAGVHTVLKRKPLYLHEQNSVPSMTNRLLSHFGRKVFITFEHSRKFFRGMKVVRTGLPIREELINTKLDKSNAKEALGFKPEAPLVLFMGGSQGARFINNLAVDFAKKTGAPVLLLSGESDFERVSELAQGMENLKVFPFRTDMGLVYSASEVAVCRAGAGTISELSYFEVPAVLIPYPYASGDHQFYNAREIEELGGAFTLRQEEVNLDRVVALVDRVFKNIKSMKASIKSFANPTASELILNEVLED
# protocol: UV-Vis-based MurG assay
# Assay type: biochemical
# measurement context: read-out: HthermMurG inhibition (%)
Below, each of the molecules is paired with its reported inhibition at 10 µM value.
Unit % implied. Number only.

Observe how each entry below is paired with its result.
molecule="O=C(NC(=O)c1ccccc1Cl)Nc1ccc(OC(F)(F)F)cc1 [Triflumuron, triflumuron]" tested_target="HyMurG (Hydrogenivirga sp. 128-5-R1-1, UniProt A8US35)" assay_result=0
molecule="C=C(C/C=C(\\C)CCC=C(C)C)CCC(C)(C)/C=C/CC/C(C)=C\\CO[C@H](COP(=O)(O)O[C@H]1O[C@H](C(N)=O)[C@@](C)(O)[C@H](OC(N)=O)[C@H]1O[C@@H]1O[C@H](CO[C@@H]2O[C@H](CO)[C@@H](O)[C@H](O)[C@H]2O)[C@@H](O[C@@H]2O[C@H](C)[C@@H](O[C@@H]3O[C@H](C(=O)NC4=C(O)CCC4=O)[C@H](O)[C@H](O)[C@H]3O)[C@H](O)[C@H]2NC(C)=O)[C@H](O)[C@H]1NC(C)=O)C(=O)O [Moenomycin A, moenomycin A]" tested_target="HyMurG (Hydrogenivirga sp. 128-5-R1-1, UniProt A8US35)" assay_result=0
molecule="CO[C@H]1[C@@H](O)[C@H](n2ccc(=O)[nH]c2=O)O[C@@H]1[C@@H](O[C@H]1OC(C(=O)N[C@H]2CCCCNC2=O)=C[C@H](O)[C@@H]1O)C(N)=O [Capuramycin, capuramycin]" tested_target="HyMurG (Hydrogenivirga sp. 128-5-R1-1, UniProt A8US35)" assay_result=0

API: the following record is the query input.
INPUT: If you can, please state the reported inhibition at 10 µM value of C[C@@H]([C@H](N)C(=O)N[C@H](C(=O)O)[C@H]1O[C@@H](n2ccc(=O)[nH]c2=O)[C@H](O)[C@@H]1O)[C@H](O)c1ccc(O)cn1 [Nikkomycin Z, nikkomycin Z] .
OUTPUT: 33

----------
# tested target: UniProt A0R016
# Sequence (A0R016 whole entry): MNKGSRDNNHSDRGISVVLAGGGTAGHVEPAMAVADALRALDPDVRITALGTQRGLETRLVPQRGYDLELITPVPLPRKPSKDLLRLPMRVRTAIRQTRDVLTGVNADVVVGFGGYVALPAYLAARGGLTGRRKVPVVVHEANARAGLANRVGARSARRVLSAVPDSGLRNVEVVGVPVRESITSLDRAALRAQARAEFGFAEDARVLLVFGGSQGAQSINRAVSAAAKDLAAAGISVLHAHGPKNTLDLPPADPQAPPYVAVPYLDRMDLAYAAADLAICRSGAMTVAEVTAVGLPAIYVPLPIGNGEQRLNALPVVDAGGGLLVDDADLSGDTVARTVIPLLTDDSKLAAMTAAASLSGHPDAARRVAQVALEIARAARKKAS
# protocol: biochemical
# Parameters: species or system Mycobacterium smegmatis
# IC50 per entry

Study these solved cases before continuing.
compound="C[C@@H]([C@H](N)C(=O)N[C@H](C(=O)O)[C@H]1O[C@@H](n2ccc(=O)[nH]c2=O)[C@H](O)[C@@H]1O)[C@H](O)c1ccc(O)cn1 [Nikkomycin Z, nikkomycin Z]" parameter_measured=IC50 assay_result="9.5 µM"
compound="CO[C@H]1[C@@H](O)[C@H](n2ccc(=O)[nH]c2=O)O[C@@H]1[C@@H](O[C@H]1OC(C(=O)N[C@H]2CCCCNC2=O)=C[C@H](O)[C@@H]1O)C(N)=O [Capuramycin, capuramycin]" parameter_measured=IC50 assay_result="> 100 µM"

Turning to the following compound.
INPUT: Fill blank: measured IC50 of the compound O=C(NC(=O)c1ccccc1Cl)Nc1ccc(OC(F)(F)F)cc1 [Triflumuron, triflumuron] is ____.
OUTPUT: > 100 µM

----------
# tested target: HyMurG (Hydrogenivirga sp. 128-5-R1-1, UniProt A8US35)
# protocol: HPLC-based MurG assay, dose-response, HyMurG
# Type: biochemical
# measurement context: read-out: IC50 HyMurG; HPLC-based method; average of two-three experiments
parameter measured: IC50 (µM)
Kindly answer with a numeric value in µM, unit omitted.

structure_smiles=C[C@@H]([C@H](N)C(=O)N[C@H](C(=O)O)[C@H]1O[C@@H](n2ccc(=O)[nH]c2=O)[C@H](O)[C@@H]1O)[C@H](O)c1ccc(O)cn1 measurement_unit=µM assay_result=8.7

INPUT: # query: IC50 of entry NC(=O)OC[C@H](O)[C@@H](O)[C@H](N)C(=O)N[C@H](C(=O)O)[C@H]1O[C@@H](n2cc(C(=O)O)c(=O)[nH]c2=O)[C@H](O)[C@@H]1O
OUTPUT: 50.8
